testedTarget: T1, Bzz1-1, P38822
T1 sequence (P38822 478-572, looked up): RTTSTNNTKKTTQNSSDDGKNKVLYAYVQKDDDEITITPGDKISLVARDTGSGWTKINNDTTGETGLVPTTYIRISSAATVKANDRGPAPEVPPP
assayInfo: SPOT array
testConditions: median of control spots 4446
For each record, write down the corresponding SPOT intensity.
Answers are plain numbers.

EEEEEHPPLPARRKS : 4
QLMKNLPKIPLLNDI : 1
GRLRPKRIAPWHLIQ : 0

In the following, a different binder is considered.
Query: Bench note: what SPOT intensity did `VRVKKRPLIRPLNSS` show?
Result: 1
